Biological target: UniProtKB P07900
Experiment: SPR binding assay on immobilized Hsp90
Conditions: immobilized Hsp90, 25°C, single-site bimolecular model
I'd be grateful if you could share measured pKd for these entries.
Keep it numeric: pKd is minus log10 of the concentration in mol/L.

Input: Which value of pKd has been reported for N=C(N)NCCC[C@H](N)C(=O)N[C@H]1CCN2C[C@H](O)[C@@H](O)[C@@H]2C1 [Compound 3] in the records?
Output: 6.97

Input: Name the reported pKd value associated with the molecule O[C@@H]1[C@@H](O)CN2CCCC[C@@H]12 [Compound 1, (+)-lentiginosine]
Output: 7.61

Input: Name the reported pKd value associated with the molecule OCCc1cn([C@H]2CCN3C[C@H](O)[C@@H](O)[C@@H]3C2)nn1 [Compound 5]
Output: 6.94

Input: Quick one: pKd for N[C@H]1CCN2C[C@H](O)[C@@H](O)[C@@H]2C1 [Compound 7] ?
Output: 6.00

Input: Would you mind telling me what pKd value was observed for N[C@@H](Cc1c[nH]c2ccccc12)C(=O)NCc1cn([C@H]2CCN3C[C@H](O)[C@@H](O)[C@@H]3C2)nn1 [Compound 6] ?
Output: 6.51

Input: If you can, please state the reported pKd value of CCCCCCc1cn([C@H]2CCN3C[C@H](O)[C@@H](O)[C@@H]3C2)nn1 [Compound 4] .
Output: 7.34
